- assayedSystem: Lp-PLA2 (Homo sapiens)
- Construct: from tissue; host or cells: LDL from plasma (apheresis)
- Sequence (Q13093 22-441): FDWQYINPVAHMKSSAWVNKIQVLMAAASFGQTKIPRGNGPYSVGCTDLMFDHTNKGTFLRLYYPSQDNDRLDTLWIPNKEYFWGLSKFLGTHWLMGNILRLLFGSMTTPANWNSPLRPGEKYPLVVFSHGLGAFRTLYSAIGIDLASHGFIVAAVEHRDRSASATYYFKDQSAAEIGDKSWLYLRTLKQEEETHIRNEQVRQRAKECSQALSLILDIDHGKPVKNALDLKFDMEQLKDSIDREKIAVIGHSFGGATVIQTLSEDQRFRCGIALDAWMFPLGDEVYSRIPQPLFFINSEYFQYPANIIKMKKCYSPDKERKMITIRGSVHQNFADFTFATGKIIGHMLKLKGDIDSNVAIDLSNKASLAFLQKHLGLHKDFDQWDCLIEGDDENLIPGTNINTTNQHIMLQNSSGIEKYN
- procedureText: Screen for Lp-PLA2 inhibition (turnover of artificial substrate (A), absorbance at 405 nm)
- Assay type: biochemical
- cond: 37° C., pH 7.4, 10 min pre-incubation, 20 μM substrate (A)
propertyName: IC50 (µM)

Illustrative cases are given below, each with its answer.
| molecule | assayedSystem | valueReported |
| --- | --- | --- |
| CCCCCCCCCCCCCCCCCCOCC(COP(=O)([O-])OCC[N+](C)(C)C)NC(C)=O (centres unmarked) | Lp-PLA2 (Homo sapiens) | 3.5 |
| CCCCCCCCCCCCCCCCCCOCC(COP(=O)([O-])OCC[S+](C)C)NC(C)=O (centres unmarked) | Lp-PLA2 (Homo sapiens) | 1 |

a. CCCCCCCCCCCCCCCCOCC(COP(=O)([O-])OCC[N+](C)(C)C)NC(C)=O (centres unmarked)
b. CCCCCCCCCCCCCCCCCCOCC(COP(=O)([O-])OCC[n+]1ccn(C)c1)NC(C)=O (centres unmarked)
c. CCCCCCCCCCCCCCCCCCOCC(COP(=O)([O-])OCC[N+](C)(C)C)NC(=O)C(F)(F)F (centres unmarked)
Task: Your job: order these 3 records by IC50, ascending. Answer format: the labels, in the requested order.
Output: b, a, c
(b: 0.55 µM, a: 0.8 µM, c: 2.5 µM)

The reported measurements were obtained from patent US8088886B2.
